- Target entity: 5-hydroxytryptamine receptor 2A (Rattus norvegicus, UniProt P14842)
- Sequence (P14842 whole entry): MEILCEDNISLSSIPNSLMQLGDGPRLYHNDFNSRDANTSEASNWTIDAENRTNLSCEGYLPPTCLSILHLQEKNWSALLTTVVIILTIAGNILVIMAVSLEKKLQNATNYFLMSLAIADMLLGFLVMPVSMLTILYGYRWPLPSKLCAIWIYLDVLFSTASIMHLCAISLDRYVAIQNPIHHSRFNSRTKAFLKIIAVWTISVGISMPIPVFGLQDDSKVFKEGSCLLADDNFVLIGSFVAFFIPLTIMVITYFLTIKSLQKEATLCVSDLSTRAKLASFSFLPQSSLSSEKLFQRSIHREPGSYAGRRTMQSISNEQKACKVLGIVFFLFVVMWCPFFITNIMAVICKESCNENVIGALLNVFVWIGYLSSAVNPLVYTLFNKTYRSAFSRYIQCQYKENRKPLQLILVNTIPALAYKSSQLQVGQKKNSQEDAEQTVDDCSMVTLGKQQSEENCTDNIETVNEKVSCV
- Procedure summary: Serotonin 5-HT2A receptor-mediated intracellular calcium [Ca2+] mobilization in rat A7r5 cells
Mark met only for EC50 values smaller than 800 nM; exact matches and larger values are not met.

Take the molecule COc1cc([C@@H](O)[C@@H](C)N)c(OC)cc1Br and say whether its EC50 is less than 800 nM.
met

Take the molecule COc1cc([C@H](OC)[C@H](C)N)c(OC)cc1Br and say whether its EC50 is less than 800 nM.
not met

Take the molecule COc1cc([C@@H](O)[C@H](C)N)c(OC)cc1Br and say whether its EC50 is less than 800 nM.
not met

Take the molecule COc1cc(C(CN)OC)c(OC)cc1Br (stereo unspecified) and say whether its EC50 is less than 800 nM.
met

Take the molecule COc1cc([C@@H](OC)[C@@H](C)N)c(OC)cc1Br and say whether its EC50 is less than 800 nM.
met

Take the molecule COc1ccc(OC)c(C[C@@H](C)N)c1 and say whether its EC50 is less than 800 nM.
met
